Where do these numbers come from? They come from PubChem BioAssay AID588726.

- testedSystem: Fructose-bisphosphate aldolase (Mycobacterium tuberculosis (strain ATCC 25618 / H37Rv)) (UniProt P9WQA3)
- Sequence (P9WQA3 whole entry, looked up): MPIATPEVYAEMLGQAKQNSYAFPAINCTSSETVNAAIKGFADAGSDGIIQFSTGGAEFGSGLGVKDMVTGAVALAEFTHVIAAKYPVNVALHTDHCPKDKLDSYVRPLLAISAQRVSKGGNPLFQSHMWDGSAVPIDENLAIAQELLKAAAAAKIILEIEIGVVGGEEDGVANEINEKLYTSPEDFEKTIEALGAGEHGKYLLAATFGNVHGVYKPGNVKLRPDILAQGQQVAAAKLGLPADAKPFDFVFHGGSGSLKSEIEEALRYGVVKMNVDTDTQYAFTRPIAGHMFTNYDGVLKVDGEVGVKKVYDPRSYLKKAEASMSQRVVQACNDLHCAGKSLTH
- experimentalDetails: Mtb FBA enzyme inhibitors, primary screen, biochemical, fluorescence, strain H37Rv (AID 588726)
- conditionDetails: purified M. tuberculosis FBA, fluorescence read-out, at 1 µM
The campaign covered roughly 360,000 compounds. About 8,200 (2.3%) were called active. Rule as the data show it: active = inhibition above about 27%; inactive = the rest. This is one part of a sample in which actives are shown more often than they occur.
Can you answer with just one of these options? active, inactive

Below, 5 molecules whose answers are already recorded.
C#Cc1cc(N2CCN(C(=O)c3ccoc3)CC2)n2nc(-c3cccc(Cl)c3)cc2n1; active
CCN(C(=O)CSc1cccc[n+]1[O-])c1ccccc1; inactive
Cc1cc(C)cc(Oc2c(C(F)(F)F)oc3cc(OCC(=O)O)ccc3c2=O)c1; inactive
NS(=O)(=O)c1ccc(N2C(=O)C3C4CC(C(Br)C4Br)C3C2=O)cc1 (configuration not stated); inactive
COc1ccc(-c2csc3nc(-c4ccccc4F)oc(=O)c23)cc1OC; inactive

Dear colleague, could you share the recorded outcome for COc1ccc2c(c1)C(=C(C#N)C#N)C(=O)N2CCc1ccccc1 when you have a moment?
inactive

Dear colleague, could you share the recorded outcome for O=C(c1cc(-c2ccco2)nc2ccccc12)N(Cc1nnc(-c2ccc(Cl)cc2)o1)C1CC1 when you have a moment?
active

Dear colleague, could you share the recorded outcome for Cc1ccc(S(=O)Cc2ccc(C(=O)N3CCN(C4CCCCC4)CC3)o2)cc1 (configuration not stated) when you have a moment?
inactive
